# Tested on: U2OS
# methodSummary: Multiplex assay against U2OS
# Type: toxicity, cell-based
# conditionInfo: human, 48 h, 10 µM, compound concentration 10 uM, replicate 1
Consider the following molecules and their measured Population Apoptotic (%) readings.

molecule	targetDesc	Population Apoptotic (%)
CCCS(=O)(=O)c1nc(NC2CC2)cc(-c2ccc3c(ccn3C3CC(C)(C)NC(C)(C)C3)c2)n1	U2OS	90
COCC(=O)NC/C=C/c1ccc2ncnc(Nc3ccc(Oc4ccc(C)nc4)c(C)c3)c2c1	U2OS	76
O=C(Nc1ccc(-n2nc(-c3cccnc3)cc2C(F)(F)F)cn1)c1ccc(-c2ccccc2)c(F)c1	U2OS	63
CCOc1cc(C(=O)N2CCC(N3CCN(C)CC3)CC2)ccc1Nc1ncc2c(n1)N(C1CCCC1)c1ccccc1C(=O)N2C	U2OS	93
CCc1cccc(CC)c1NC(=O)c1nn(C)c2c1CCc1cnc(Nc3ccc(C(=O)NC4CCN(C)CC4)cc3OC(F)(F)F)nc1-2	U2OS	57
CCOC(=O)c1c(C)[nH]c2ccc3c(c12)CN1CCc2cc(OC)ccc2C1O3 (configuration not stated)	U2OS	100
O=C(Nc1ccc(Cl)cc1)Nc1cccc(-c2cccc(N3CCCC3)n2)c1	U2OS	91
O=C1NC(=O)C(c2cnc3ccccn23)=C1c1cn2c3c(cc(F)cc13)CN(C(=O)N1CCCCC1)CC2	U2OS	95
Cl.Oc1ccc2c3c1O[C@H]1c4[nH]c5c(c4C[C@@]4(O)[C@@H](C2)N(CC2CC2)CC[C@]314)C[C@@]1(O)[C@H]2Cc3ccc(O)c4c3[C@@]1(CCN2CC1CC1)[C@H]5O4	U2OS	47
S=C(NCCCc1c[nH]cn1)NCCCN(Cc1ccc(Cl)c(Cl)c1)c1ccc(Br)cn1	U2OS	92
Cl.O=c1c2cccn2c2ccccc2n1CCCN1CCC(c2ccc(Cl)cc2)CC1	U2OS	87
CCCn1c(=O)c2[nH]c(-c3cnn(Cc4cccc(C(F)(F)F)c4)c3)nc2n(CC)c1=O	U2OS	67
COc1cc(N2CCN(C)CC2)ccc1Nc1ncc2c(n1)N(C)c1ccccc1C(=O)N2C	U2OS	84
CN[C@@H]1C[C@H]2O[C@@](C)([C@@H]1OC)n1c3ccccc3c3c4c(c5c6ccccc6n2c5c31)C(=O)NC4	U2OS	95
CN1CCN(C(=O)C(C)(C)c2ccc(C(=O)Nc3cn4cc(-c5ccncc5)ccc4n3)cc2)CC1	U2OS	73
CN1C2CCC1CC(OC(c1ccc(F)cc1)c1ccc(F)cc1)C2.Cl (configuration not stated)	U2OS	64
O=C(Nc1ccc(-c2ccnc(Nc3ccc(N4CCOCC4)cc3)n2)cc1)[C@@H]1CCCN1	U2OS	67

----------
# Test system: Fibroblast
# methodSummary: Multiplex assay against human fibroblast
# Assay type: toxicity, cell-based
# conditionInfo: 24 h, 1 µM, compound concentration 1 uM, replicate 2
Tag: class 1 if measured Population Pyknosed Nuclei (%) is not below 8%, class 0 if it is.

smilesString	labelClass
CCn1c(=O)c(-c2ccc(-c3cncs3)cc2Cl)cc2cnc(Nc3ccc(N4CCN(C)CC4)cc3)nc21	class 1
O=C(Nc1ccc(-c2ccnc(Nc3ccc(N4CCOCC4)cc3)n2)cc1)[C@@H]1CCCN1	class 0
O=C(Nc1cccnn1)N1CCC(=Cc2cccc(Oc3ccc(C(F)(F)F)cn3)c2)CC1	class 1
COC(=N)c1nc2ccc3ncnc(Nc4ccc(OC)cc4F)c3c2s1	class 1
CCOc1cc2ncc(C#N)c(Nc3ccc(OCc4ccccn4)c(Cl)c3)c2cc1NC(=O)/C=C/CN(C)C	class 1
CCc1cccc(CC)c1NC(=O)c1nn(C)c2c1CCc1cnc(Nc3ccc(N4CCN(C)CC4)cc3OC)nc1-2	class 1
Cl.Oc1ccc2c3c1O[C@H]1c4[nH]c5c(c4C[C@@]4(O)[C@@H](C2)N(CC2CC2)CC[C@]314)C[C@@]1(O)[C@H]2Cc3ccc(O)c4c3[C@@]1(CCN2CC1CC1)[C@H]5O4	class 0

----------
# Test system: U2OS
# methodSummary: Multiplex assay against U2OS
# Format: toxicity, cell-based
# conditionInfo: human, 24 h, 1 µM, compound concentration 1 uM, replicate 1
Consider the following molecules and their measured Population Membrane Permeable-Phenotype (%) readings.
measurementType: Population Membrane Permeable-Phenotype (%)

>>> df
                               smilesstring  measurednumber
0  CCCn1c(=O)c2[nH]c(-c3cnn(Cc4cccc(C(F)(F)F)c4)c3)nc2n(CC)c1=O               7
1  S=C(NCCCc1c[nH]cn1)NCCCN(Cc1ccc(Cl)c(Cl)c1)c1ccc(Br)cn1               6
2  O=C(Nc1ccc(Cl)cc1)Nc1cccc(-c2cccc(N3CCCC3)n2)c1               5

----------
# Test system: HEK-293T
# methodSummary: Multiplex assay against HEK293T
# Format: toxicity, cell-based
# conditionInfo: human, 24 h, 10 µM, compound concentration 10 uM, replicate 1
measurementType: Population Membrane Permeable-Phenotype (%)

>>> df
                                    compound  targetdesc  measurednumber
 0  COCC(=O)NC/C=C/c1ccc2ncnc(Nc3ccc(Oc4ccc(C)nc4)c(C)c3)c2c1    HEK-293T               0
 1  Cc1ccc2nc(NCCN)c3ncc(C)n3c2c1.O=C(O)C(F)(F)F.O=C(O)C(F)(F)F    HEK-293T               6
 2  CCc1cccc(CC)c1NC(=O)c1nn(C)c2c1CCc1cnc(Nc3ccc(C(=O)NC4CCN(C)CC4)cc3OC(F)(F)F)nc1-2    HEK-293T               4
 3  NC(=O)c1cccc(-c2cc(Nc3ccc(OC(F)(F)F)cc3)ncn2)c1    HEK-293T               3
 4  CNc1cc(Oc2cc(C(=O)Nc3cc(N4CCN(C)CC4)cc(C(F)(F)F)c3)ccc2C)ncn1    HEK-293T               0
 5  O=C(Nc1ccc(-c2ccnc(Nc3ccc(N4CCOCC4)cc3)n2)cc1)[C@@H]1CCCN1    HEK-293T               1
 6  COc1cc2ncnc(Nc3ccc(F)c(Cl)c3)c2cc1NC(=O)/C=C/CN1CCCCC1 [DACOMITINIB ANHYDROUS]    HEK-293T              10
 7  CCCn1c(=O)c2[nH]c(-c3cnn(Cc4cccc(C(F)(F)F)c4)c3)nc2n(CC)c1=O    HEK-293T               4
 8  CCCS(=O)(=O)Nc1ccc(F)c(C(=O)c2c[nH]c3ncc(Cl)cc23)c1F    HEK-293T               5
 9  CCN1CCN(Cc2ccc(Nc3ncc(F)c(-c4cc(F)c5nc(C)n(C(C)C)c5c4)n3)nc2)CC1.CS(=O)(=O)O    HEK-293T               0
10  O=C(Nc1cccnn1)N1CCC(=Cc2cccc(Oc3ccc(C(F)(F)F)cn3)c2)CC1    HEK-293T               8
11  Cc1cn(-c2cc(NC(=O)c3ccc(C)c(Nc4nccc(-c5cccnc5)n4)c3)cc(C(F)(F)F)c2)cn1    HEK-293T               1

----------
# System: U2OS
# methodSummary: Multiplex assay against U2OS
# Assay type: toxicity, cell-based
# conditionInfo: human, 12 h, 1 µM, compound concentration 1 uM, replicate 2
Tag: fulfilled if measured Population Fragmented Nuclei (%) is not below 20%, not fulfilled if it is.

>>> df
                               smilesstring     labelclass
0  CN[C@@H]1C[C@H]2O[C@@](C)([C@@H]1OC)n1c3ccccc3c3c4c(c5c6ccccc6n2c5c31)C(=O)NC4      fulfilled
1  CCOc1cc(C(=O)N2CCC(N3CCN(C)CC3)CC2)ccc1Nc1ncc2c(n1)N(C1CCCC1)c1ccccc1C(=O)N2C  not fulfilled
2  CNC(=O)c1ccc(Nc2nc(OC3CCCC3)c3c(-c4ccc5nc(C)oc5c4)c[nH]c3n2)c(OC)c1  not fulfilled
3  Cc1cc(C)c(S(=O)(=O)N(Cc2ccc(-c3cccc(S(C)(=O)=O)c3)cc2)Cc2ccc(C(F)(F)F)o2)c(C)c1  not fulfilled

----------
# Tested on: HEK-293T
# methodSummary: Multiplex assay against HEK293T
# Type: toxicity, cell-based
# conditionInfo: human, 24 h, 1 µM, compound concentration 1 uM, replicate 2
Consider the following compounds and their measured Population Pyknosed Nuclei (%) readings.
measurementType: Population Pyknosed Nuclei (%)

>>> df
                               smilesstring                 measurementtype  unitspec  measurednumber
0  COc1ccc(-c2ccc3c(N4CCOCC4)nc(N4C[C@@H](C)O[C@@H](C)C4)nc3n2)cc1CO  Population Pyknosed Nuclei (%)         %               1
1  O=C1NC(=O)C(c2cnc3ccccn23)=C1c1cn2c3c(cc(F)cc13)CN(C(=O)N1CCCCC1)CC2  Population Pyknosed Nuclei (%)         %              50
2  S=C(NCCCc1c[nH]cn1)NCCCN(Cc1ccc(Cl)c(Cl)c1)c1ccc(Br)cn1  Population Pyknosed Nuclei (%)         %              54
3  O=C(Nc1ccc(Cl)cc1)Nc1cccc(-c2cccc(N3CCCC3)n2)c1  Population Pyknosed Nuclei (%)         %              30
4  O=C(Nc1ccc(-c2ccnc(Nc3ccc(N4CCOCC4)cc3)n2)cc1)[C@@H]1CCCN1  Population Pyknosed Nuclei (%)         %              32
